- TARGET DESC: SARS-CoV-2 M^pro (Severe acute respiratory syndrome coronavirus 2, UniProt P0DTD1)
- EXPERIMENTAL PROTOCOL: biochemical
- Format: binding
- ASSAY SETUP: read-out: ka (kinetic association)
Numbered stars: 1 amine (or outer) side, 2 acyl side, 3 side chain; on linkers, the order of the positions; unused ones are H or OH. Bridge positions count the residues as written; N and C are the ends. Square brackets hold non-standard residues; d marks the D form. Peptide text beside a SMILES is read from it. Acbc(cis-1,3) = O=C([C@H]1C[C@@H](N[*:1])C1)[*:2]; X1 = O=C([C@@H]1CC[C@H](N[*:1])C1)[*:2]
For each record, write down the corresponding kon.
Give bare numbers, in M⁻¹ s⁻¹.

Examples with answers:
COMPOUND: CC(C)C[C@@H]1NC(=O)[C@@H](Cc2ccc(O)cc2)NC(=O)CSC[C@H](C(N)=O)NC(=O)[C@H](C)NC(=O)[C@H](C)NC(=O)[C@H](Cc2ccc(O)cc2)NC(=O)[C@H](CCCNC(=N)N)NC(=O)[C@H](Cc2ccc(O)cc2)NC(=O)[C@@H]2CC[C@@H](C2)NC(=O)[C@H](CO)NC(=O)[C@H](Cc2ccc(O)cc2)NC(=O)[C@H]([C@@H](C)O)NC(=O)[C@H](CO)NC(=O)[C@H](C)NC(=O)[C@H](Cc2ccc(O)cc2)NC(=O)[C@H](Cc2c[nH]cn2)NC1=O [GM3] ({CH2CO}-[dY]LHYASTYS[X1]YRYAA[dC]-NH2; thioether N-16)
TARGET DESC: SARS-CoV-2 M^pro (Severe acute respiratory syndrome coronavirus 2, UniProt P0DTD1)
kon / M⁻¹ s⁻¹: 200000

COMPOUND: CC[C@H](C)[C@@H]1NC(=O)[C@H](Cc2ccc(O)cc2)NC(=O)[C@H](CC(C)C)NC(=O)[C@H](CC(=O)O)NC(=O)[C@H](CCCNC(=N)N)NC(=O)[C@H](Cc2ccccc2)NC(=O)[C@@H]2CC[C@@H](C2)NC(=O)[C@H](Cc2c[nH]cn2)NC(=O)[C@H](Cc2ccccc2)NC(=O)[C@@H](Cc2ccc(O)cc2)NC(=O)CSC[C@H](C(N)=O)NC(=O)CNC(=O)[C@H](CC(C)C)NC1=O [GM5] ({CH2CO}-[dY]FH[X1]FRDLYILG[dC]-NH2; thioether N-13)
TARGET DESC: SARS-CoV-2 M^pro (Severe acute respiratory syndrome coronavirus 2, UniProt P0DTD1)
kon / M⁻¹ s⁻¹: 240000

COMPOUND: CC(C)C[C@@H]1NC(=O)[C@H]([C@@H](C)O)NC(=O)[C@H](Cc2ccc(O)cc2)NC(=O)[C@H]([C@@H](C)O)NC(=O)[C@H](Cc2c[nH]cn2)NC(=O)[C@@H]2CCCN2C(=O)[C@@H]2CCCN2C(=O)[C@H](Cc2ccccc2)NC(=O)[C@H]2C[C@H](C2)NC(=O)[C@H](Cc2c[nH]cn2)NC(=O)[C@H](Cc2ccccc2)NC(=O)[C@@H](Cc2ccc(O)cc2)NC(=O)CSC[C@H](C(N)=O)NC1=O [GM1] ({CH2CO}-[dY]FH[Acbc(cis-1,3)]FPPHTYTL[dC]-NH2; thioether N-13)
TARGET DESC: SARS-CoV-2 M^pro (Severe acute respiratory syndrome coronavirus 2, UniProt P0DTD1)
kon / M⁻¹ s⁻¹: 410000

COMPOUND: CC(C)C[C@@H]1NC(=O)[C@H](C)NC(=O)[C@H](Cc2c[nH]cn2)NC(=O)[C@H](Cc2ccccc2)NC(=O)[C@@H](Cc2ccc(O)cc2)NC(=O)CSC[C@H](C(N)=O)NC(=O)CNC(=O)[C@@H]2CCCN2C(=O)[C@H](CCCNC(=N)N)NC(=O)[C@H](Cc2ccc(O)cc2)NC(=O)CNC(=O)[C@H](CC(C)C)NC(=O)[C@H](CC(N)=O)NC1=O [GM4γ^14A] ({CH2CO}-[dY]FHALNLGYRPG[dC]-NH2; thioether N-13)
TARGET DESC: SARS-CoV-2 M^pro (Severe acute respiratory syndrome coronavirus 2, UniProt P0DTD1)
kon / M⁻¹ s⁻¹: 1.1e+06

INPUT: Record request: kon value, item CC(C)C[C@@H]1NC(=O)[C@H]([C@@H](C)O)NC(=O)[C@H](Cc2ccc(O)cc2)NC(=O)[C@H]([C@@H](C)O)NC(=O)[C@H](Cc2c[nH]cn2)NC(=O)[C@@H]2CCCN2C(=O)[C@@H]2CCCN2C(=O)[C@H](Cc2ccccc2)NC(=O)[C@H](C)NC(=O)[C@H](Cc2c[nH]cn2)NC(=O)[C@H](Cc2ccccc2)NC(=O)[C@@H](Cc2ccc(O)cc2)NC(=O)CSC[C@H](C(N)=O)NC1=O [GM1γ^14A] ({CH2CO}-[dY]FHAFPPHTYTL[dC]-NH2; thioether N-13)
OUTPUT: 320000

---

- TARGET DESC: SARS-CoV-2 M^pro (Severe acute respiratory syndrome coronavirus 2, UniProt P0DTD1)
Numbered stars: 1 amine (or outer) side, 2 acyl side, 3 side chain; on linkers, the order of the positions; unused ones are H or OH. Bridge positions count the residues as written; N and C are the ends. Square brackets hold non-standard residues; d marks the D form. Peptide text beside a SMILES is read from it. Acbc(cis-1,3) = O=C([C@H]1C[C@@H](N[*:1])C1)[*:2]; X1 = O=C([C@@H]1CC[C@H](N[*:1])C1)[*:2]
ENDPOINT NAME: pIC50
One number for each entry, as −log10 of the molar value.

Examples with answers:
COMPOUND: CC(C)C[C@@H]1NC(=O)[C@H](CC(N)=O)NC(=O)[C@H](CC(C)C)NC(=O)[C@H](CC(N)=O)NC(=O)[C@H](Cc2c[nH]cn2)NC(=O)[C@H](Cc2ccccc2)NC(=O)[C@@H](Cc2ccc(O)cc2)NC(=O)CSC[C@H](C(N)=O)NC(=O)CNC(=O)[C@@H]2CCCN2C(=O)[C@H](CCCNC(=N)N)NC(=O)[C@H](Cc2ccc(O)cc2)NC(=O)CNC1=O [GM4γ^14N] ({CH2CO}-[dY]FHNLNLGYRPG[dC]-NH2; thioether N-13)
TARGET DESC: SARS-CoV-2 M^pro (Severe acute respiratory syndrome coronavirus 2, UniProt P0DTD1)
ENDPOINT NAME: pIC50
OBSERVED MEASUREMENT: 6.00

COMPOUND: CC(C)C[C@@H]1NC(=O)[C@@H](Cc2ccc(O)cc2)NC(=O)CSC[C@H](C(N)=O)NC(=O)[C@H](C)NC(=O)[C@H](C)NC(=O)[C@H](Cc2ccc(O)cc2)NC(=O)[C@H](CCCNC(=N)N)NC(=O)[C@H](Cc2ccc(O)cc2)NC(=O)[C@@H]2CC[C@@H](C2)NC(=O)[C@H](CO)NC(=O)[C@H](Cc2ccc(O)cc2)NC(=O)[C@H]([C@@H](C)O)NC(=O)[C@H](CO)NC(=O)[C@H](C)NC(=O)[C@H](Cc2ccc(O)cc2)NC(=O)[C@H](Cc2c[nH]cn2)NC1=O [GM3] ({CH2CO}-[dY]LHYASTYS[X1]YRYAA[dC]-NH2; thioether N-16)
TARGET DESC: SARS-CoV-2 M^pro (Severe acute respiratory syndrome coronavirus 2, UniProt P0DTD1)
ENDPOINT NAME: pIC50
OBSERVED MEASUREMENT: 5.69

For the next question, use this compound.
INPUT: Record request: pIC50 value, item CC(C)C[C@@H]1NC(=O)[C@H](CC(N)=O)NC(=O)[C@H](CC(C)C)NC(=O)[C@H]2C[C@H](C2)NC(=O)[C@H](CCC(N)=O)NC(=O)[C@H](Cc2ccccc2)NC(=O)[C@@H](Cc2ccc(O)cc2)NC(=O)CSC[C@H](C(N)=O)NC(=O)CNC(=O)[C@@H]2CCCN2C(=O)[C@H](CCCNC(=N)N)NC(=O)[C@H](Cc2ccc(O)cc2)NC(=O)CNC1=O [GM4H3Q] ({CH2CO}-[dY]FQ[Acbc(cis-1,3)]LNLGYRPG[dC]-NH2; thioether N-13)
OUTPUT: 8.00

---

For each record, write down the corresponding inhibition at 8.32 µM.
- TARGET DESC: SARS-CoV-2 M^pro (Severe acute respiratory syndrome coronavirus 2)
- EXPERIMENTAL PROTOCOL: biochemical
- Type: biochemical
Numbered stars: 1 amine (or outer) side, 2 acyl side, 3 side chain; on linkers, the order of the positions; unused ones are H or OH. Bridge positions count the residues as written; N and C are the ends. Square brackets hold non-standard residues; d marks the D form. Peptide text beside a SMILES is read from it. Acbc(cis-1,3) = O=C([C@H]1C[C@@H](N[*:1])C1)[*:2]
Remember to quote the unit after the number.

Examples with answers:
COMPOUND: CC(C)C[C@@H]1NC(=O)[C@H](CC(N)=O)NC(=O)[C@H](CC(C)C)NC(=O)[C@H]2C[C@H](C2)NC(=O)[C@H](Cc2c[nH]cn2)NC(=O)[C@H](Cc2ccccc2)NC(=O)[C@@H](Cc2ccc(O)cc2)NC(=O)CSC[C@H](C(N)=O)NC(=O)CNC(=O)[C@@H]2CCCN2C(=O)[C@H](CCCNC(=N)N)NC(=O)[C@H](Cc2ccc(O)cc2)NC(=O)CNC1=O [GM4] ({CH2CO}-[dY]FH[Acbc(cis-1,3)]LNLGYRPG[dC]-NH2; thioether N-13)
ENDPOINT NAME: inhibition at 8.32 µM
OBSERVED MEASUREMENT: 100%

COMPOUND: CC(C)C[C@@H]1NC(=O)[C@@H](Cc2ccc(O)cc2)NC(=O)CSC[C@H](C(N)=O)NC(=O)[C@H](C)NC(=O)[C@H](C)NC(=O)[C@H](Cc2ccc(O)cc2)NC(=O)[C@H](CCCNC(=N)N)NC(=O)[C@H](Cc2ccc(O)cc2)NC(=O)[C@H](C)NC(=O)[C@H](CO)NC(=O)[C@H](Cc2ccc(O)cc2)NC(=O)[C@H]([C@@H](C)O)NC(=O)[C@H](CO)NC(=O)[C@H](C)NC(=O)[C@H](Cc2ccc(O)cc2)NC(=O)[C@H](Cc2c[nH]cn2)NC1=O [GM3γ^210A] ({CH2CO}-[dY]LHYASTYSAYRYAA[dC]-NH2; thioether N-16)
ENDPOINT NAME: inhibition at 8.32 µM
OBSERVED MEASUREMENT: 100%

INPUT: // map CC(C)C[C@@H]1NC(=O)[C@H]([C@@H](C)O)NC(=O)[C@H](Cc2ccc(O)cc2)NC(=O)[C@H]([C@@H](C)O)NC(=O)[C@H](Cc2c[nH]cn2)NC(=O)[C@@H]2CCCN2C(=O)[C@@H]2CCCN2C(=O)[C@H](Cc2ccccc2)NC(=O)[C@H]2C[C@H](C2)NC(=O)[C@H](Cc2c[nH]cn2)NC(=O)[C@H](Cc2ccccc2)NC(=O)[C@@H](Cc2ccc(O)cc2)NC(=O)CSC[C@H](C(N)=O)NC1=O [GM1] ({CH2CO}-[dY]FH[Acbc(cis-1,3)]FPPHTYTL[dC]-NH2; thioether N-13) to recorded inhibition at 8.32 µM (system: SARS-CoV-2 M^pro (Severe acute respiratory syndrome coronavirus 2))
OUTPUT: 100%
